Test system: HT29 colon
Assay: NCI tumour cell line growth inhibition, 384-well format
Measured TGI accompanies every entry in the list below.
recorded metric: TGI

• Nc1cc2c(cc1Cl)C(=O)c1ccccc1C2=O = > 100 µM
• CCNC(=O)Nc1ccc(-c2nc3c(c(N4CCOC[C@@H]4C)n2)CCN(C2COC2)C3)cc1 = > 100 µM
• C[C@H](Nc1ccc(C#N)n(C)c1=O)c1cc2cc(Cl)ccc2[nH]c1=O = > 100 µM
